- SYSTEM UNDER TEST: T1, human GLP-2 receptor (hGLP2-R), splice variant rs17681684 (human, UniProt O95838 1-553)
- T1 sequence (looked up): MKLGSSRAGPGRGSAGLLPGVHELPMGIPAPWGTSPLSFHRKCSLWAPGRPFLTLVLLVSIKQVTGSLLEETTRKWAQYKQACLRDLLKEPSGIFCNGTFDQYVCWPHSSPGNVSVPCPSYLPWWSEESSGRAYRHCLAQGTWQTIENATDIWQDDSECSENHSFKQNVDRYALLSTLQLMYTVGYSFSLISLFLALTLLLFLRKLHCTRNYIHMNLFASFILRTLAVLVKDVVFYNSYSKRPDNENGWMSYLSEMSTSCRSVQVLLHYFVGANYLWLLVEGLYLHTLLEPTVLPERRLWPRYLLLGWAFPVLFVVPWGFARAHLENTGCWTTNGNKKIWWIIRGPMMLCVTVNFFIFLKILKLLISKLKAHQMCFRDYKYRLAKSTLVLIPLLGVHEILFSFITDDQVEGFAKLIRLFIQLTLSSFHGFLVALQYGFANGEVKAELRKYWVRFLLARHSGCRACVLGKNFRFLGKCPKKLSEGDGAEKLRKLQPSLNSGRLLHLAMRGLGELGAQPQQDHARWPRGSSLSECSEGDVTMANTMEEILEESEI
- METHOD: cell-based or functional assay
PROPERTY NAME: GLP-2R EC50 (nM), cAMP AlphaScreen on HEK293 cells expressing the receptor
Report only the number, with the unit nM understood.

Worked cases, answers included:
H-HGDGSFSSELATILDGKAARDFINWLIQTKITD-OH [Compound 7: Hy-HGDGSFSSELATILDGKAARDFINWLIQTKITD-OH]
0.2
H-HGEGTFTSDLSKQMEGQAVRDFIEWLIQTKITD-OH [Compound 5: Hy-HGEGTFTSDLSKQMEGQAVRDFIEWLIQTKITD-OH]
0.2
H-HGEGSFSSDLSTILEGKAARDFIEWLIQTKITD-OH [Compound 13: Hy-HGEGSFSSDLSTILEGKAARDFIEWLIQTKITD-OH]
0.1
H-HGDGSFSDEMNTILDNKAARDFINWLIQTKITD-OH [Compound 2: Hy-HGDGSFSDEMNTILDNKAARDFINWLIQTKITD-OH]
0.02
H-HGDGSFSSEMNTILDSQAARDFINWLIQTKITD-OH [Compound 4: Hy-HGDGSFSSEMNTILDSQAARDFINWLIQTKITD-OH]
0.06

Query: Can you share its GLP-2R EC50 (nM), cAMP AlphaScreen on HEK293 cells expressing the receptor? I mean this binder: H-HGDGSFSSELATILDGQAARDFIAWLIQTKITD-OH [Compound 11: Hy-HGDGSFSSELATILDGQAARDFIAWLIQTKITD-OH]
Response: 0.2

Query: Fill in: GLP-2R EC50 (nM), cAMP AlphaScreen on HEK293 cells expressing the receptor of H-HGEGSFSSDLSTILENKAARDFIEWLIQTKITD-OH [Compound 9: Hy-HGEGSFSSDLSTILENKAARDFIEWLIQTKITD-OH] is ___
Response: 0.2

Query: Looking for the measured GLP-2R EC50 (nM), cAMP AlphaScreen on HEK293 cells expressing the receptor of H-HGEGTFTSDLSTILENKAARDFIEWLIQTKITD-OH [Compound 8: Hy-HGEGTFTSDLSTILENKAARDFIEWLIQTKITD-OH] , can you help?
Response: 0.008

Values from patent US20150125431A1
